experimental.system: HER2 S310F (Homo sapiens, UniProt P04626, S310F)
Construct: expressed in transfected cells; host or cells: BaF3 (murine pro-B)
Sequence (P04626 23-1255 S310F): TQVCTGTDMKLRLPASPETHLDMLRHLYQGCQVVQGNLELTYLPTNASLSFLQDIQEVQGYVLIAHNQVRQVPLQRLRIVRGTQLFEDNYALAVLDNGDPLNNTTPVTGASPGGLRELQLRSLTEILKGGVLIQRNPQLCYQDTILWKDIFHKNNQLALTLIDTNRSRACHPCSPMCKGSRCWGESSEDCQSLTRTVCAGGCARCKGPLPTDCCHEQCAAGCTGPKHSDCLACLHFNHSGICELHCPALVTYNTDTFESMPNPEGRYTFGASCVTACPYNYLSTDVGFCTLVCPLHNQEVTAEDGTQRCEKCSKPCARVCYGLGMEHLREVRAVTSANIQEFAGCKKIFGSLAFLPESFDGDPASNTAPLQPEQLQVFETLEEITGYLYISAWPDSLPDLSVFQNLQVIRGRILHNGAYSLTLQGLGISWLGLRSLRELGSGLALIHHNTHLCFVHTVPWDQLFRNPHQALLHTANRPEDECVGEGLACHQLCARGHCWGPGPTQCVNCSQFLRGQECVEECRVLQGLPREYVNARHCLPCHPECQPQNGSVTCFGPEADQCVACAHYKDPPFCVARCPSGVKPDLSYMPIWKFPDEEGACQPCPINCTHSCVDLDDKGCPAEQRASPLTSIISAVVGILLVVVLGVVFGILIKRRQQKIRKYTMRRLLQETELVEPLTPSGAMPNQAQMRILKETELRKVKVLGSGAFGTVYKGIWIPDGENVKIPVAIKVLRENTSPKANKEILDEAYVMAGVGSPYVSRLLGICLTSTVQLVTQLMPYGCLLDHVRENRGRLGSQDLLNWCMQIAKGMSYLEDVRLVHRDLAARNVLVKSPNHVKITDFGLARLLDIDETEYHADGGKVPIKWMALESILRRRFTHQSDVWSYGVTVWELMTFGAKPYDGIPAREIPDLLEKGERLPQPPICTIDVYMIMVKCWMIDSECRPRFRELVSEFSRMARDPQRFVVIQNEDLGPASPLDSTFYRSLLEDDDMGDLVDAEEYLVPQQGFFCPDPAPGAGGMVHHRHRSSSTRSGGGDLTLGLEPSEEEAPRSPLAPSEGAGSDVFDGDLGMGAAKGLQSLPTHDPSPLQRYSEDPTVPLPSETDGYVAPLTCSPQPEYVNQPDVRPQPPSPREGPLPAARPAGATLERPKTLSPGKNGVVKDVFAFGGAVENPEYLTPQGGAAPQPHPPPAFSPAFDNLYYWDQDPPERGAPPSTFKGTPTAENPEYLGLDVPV
measurement.description: Activity for inhibiting HER2 (Table B), HER2 S310F
Assay type: cell-based
condition.set: read-out: HER2 S310F, potency code (IC50)
measured.parameter: IC50

[in] Which measured IC50 value corresponds to C=CC(=O)Nc1cc2c(Nc3ccc(Oc4ccccc4)cc3)ncnc2cc1C#C[C@@H]1[C@H]2CN(C)C[C@@H]12 [compound 106] ?
[out] 30 to 50 nM

[in] Follow-up item: C=CC(=O)Nc1cc2c(Nc3ccc(OCc4ccccn4)c(Cl)c3)ncnc2cc1N(C)C1CCN(C)C1 (stereo not drawn) [compound 48]
[out] 300 to 500 nM

[in] Follow-up item: C=CC(=O)Nc1cc2c(Nc3ccc(OCc4ccccn4)c(Cl)c3)ncnc2cc1OCC1(N)CC1 [compound 55]
[out] 50 to 100 nM

[in] Follow-up item: C=CC(=O)Nc1cc2c(Nc3ccc(OCc4ccccn4)c(Cl)c3)ncnc2cc1OCCN1CC2CC1CO2 (stereo not drawn) [compound 39]
[out] 10 to 20 nM

[in] Follow-up item: C=CC(=O)Nc1cc2c(Nc3ccc(OCc4cccc(F)n4)c(Cl)c3)ncnc2cc1OCCCN1CCOCC1 [compound 153]
[out] 10 to 20 nM

[in] Follow-up item: CC#CC(=O)Nc1cc2c(Nc3ccc(Oc4ccccc4)cc3)ncnc2cc1C#C[C@@H]1[C@H]2CN(C)C[C@@H]12 [compound 108]
[out] 50 to 100 nM

[in] Follow-up item: C=CC(=O)Nc1cc2c(Nc3ccc(OCc4ccccn4)c(Cl)c3)ncnc2cc1N1CCN2CCC1C2 (stereo not drawn) [compound 43]
[out] 100 to 200 nM

[in] Follow-up item: C=CC(=O)Nc1cc2c(Nc3ccc(OCc4ccccn4)c(Cl)c3)ncnc2cc1N1CC(N(C)C)C1 [compound 93]
[out] 500 to 1000 nM

[in] Follow-up item: C=CC(=O)Nc1cc2c(Nc3ccc(OCc4cccc(F)n4)c(Cl)c3)ncnc2cc1OCCCN1C[C@@H]2C[C@H]1CO2 [compound 161]
[out] 30 to 50 nM

[in] Follow-up item: C=CC(=O)Nc1cc2c(Nc3ccc(Oc4ccc(C)nc4)c(C)c3)ncnc2cc1OC1CCN(C)C1 (stereo not drawn) [compound 68]
[out] 30 to 50 nM

[in] Follow-up item: C=CC(=O)Nc1cc2c(Nc3ccc(OCc4ccccn4)c(Cl)c3)ncnc2cc1N1CC(N2CCOCC2)C1 [compound 44]
[out] 300 to 500 nM

[in] Follow-up item: C=CC(=O)Nc1cc2c(Nc3ccc(OCc4ccccn4)c(Cl)c3)ncnc2cc1OCCN1CC2CN(C)CC2C1 (stereo not drawn) [compound 77]
[out] 20 to 30 nM

Sourced from patent US11034672B1
